B1: TPR t1 (parent)
chain: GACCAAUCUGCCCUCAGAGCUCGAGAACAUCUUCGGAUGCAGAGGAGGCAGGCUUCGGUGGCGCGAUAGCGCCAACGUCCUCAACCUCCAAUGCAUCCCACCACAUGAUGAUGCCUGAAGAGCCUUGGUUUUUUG

# Variants of: B1
# test.description: polymerase ribozyme fitness, log enrichment relative to wild type (log ratio); higher = more active; in vitro selection for triplet polymerase activity
# polymerase ribozyme fitness (log ratio) values compiled below
Answer as a number with no unit attached.

Use the examples below as a reference point.
G51A G60U ... -1.77
A5U G39U ... -1.13
C89A U132C ... -1.96
A16G C53G A84C C88A C101G ... -4.3
C85G U112C ... 0.41

Prompt: Give polymerase ribozyme fitness (log ratio) for the following variant: G113C G120A
Completion: -2.39

Prompt: Give polymerase ribozyme fitness (log ratio) for the following variant: C56U G128C
Completion: -2.63

Prompt: Give polymerase ribozyme fitness (log ratio) for the following variant: A2U C98U
Completion: -3.18

Prompt: Give polymerase ribozyme fitness (log ratio) for the following variant: U9C G10A
Completion: 0.0311

Prompt: Give polymerase ribozyme fitness (log ratio) for the following variant: C15U A91C
Completion: -2.75

Prompt: Give polymerase ribozyme fitness (log ratio) for the following variant: G60A C64A U112C
Completion: -6.76
